system: NCI-H322M lung; test: NCI-60 one-dose screen, 48 h (100 = growth as untreated, 0 = no growth, -100 = all killed); conditions: 10 µM unless noted
Compounds without any hit were thinned out: in the full panel of roughly 83,000, 20% have a hit.
Each record is given Criterion met if its reported growth is strictly below 70%. Records at or above 70% are given Criterion not met.

- COMPOUND: "C=C(C)[C@@H]1CC[C@]2(C(=O)O)CC[C@]3(C)[C@H](CC[C@@H]4[C@@]5(C)C[C@@H](CC#Cc6ccc(C(C)=O)s6)[C@H](O)C(C)(C)[C@@H]5CC[C@]43C)[C@@H]12"
  GROUP_LABEL: "Criterion met"
- COMPOUND: "C=C1C(=O)O[C@H]2[C@H]1CC/C(COC(=O)NCc1ccc(Cn3c(=O)sn(CCCl)c3=O)cc1)=C\\CC[C@@]1(C)O[C@@H]21"
  GROUP_LABEL: "Criterion not met"
- COMPOUND: "Cc1nn(-c2ccccc2)c2nc3c(nc12)C1=NCCN1C(c1ccc(Cl)cc1)N3 (stereo not given)"
  GROUP_LABEL: "Criterion not met"
- COMPOUND: "COc1ccc2nc3cc(Cl)ccc3c(NC(=O)CSc3ccc(Cl)cc3)c2c1"
  GROUP_LABEL: "Criterion met"
- COMPOUND: "O=C(NCCN1CCCCC1)n1cc(-c2ccncc2)c(-c2ccc(Cl)c(O)c2)n1"
  GROUP_LABEL: "Criterion not met"
- COMPOUND: "CCN(CC)CCNC(=O)C(F)(F)C(F)(F)C(F)(F)F"
  GROUP_LABEL: "Criterion not met"
- COMPOUND: "CC1(C)OC2OC3C(CN)OC(c4ccccc4)OC3C2O1 (stereo not given)"
  GROUP_LABEL: "Criterion not met"
- COMPOUND: "O=c1c2cc(Br)cc(Br)c2nc(-c2ccc(Cl)cc2)n1/N=C\\c1ccccc1F"
  GROUP_LABEL: "Criterion met"
- COMPOUND: "O=C(Nc1ccc(Cl)cc1)c1cc(-c2ccc(Cl)cc2)c2sc(=O)[nH]c2n1"
  GROUP_LABEL: "Criterion met"
- COMPOUND: "COc1ccccc1CNCCCN1C(=O)c2ccc3c4c(ccc(c24)C1=O)C(=O)N(CCCOCCCCOCCCN)C3=O"
  GROUP_LABEL: "Criterion met"
- COMPOUND: "CCN(CC)CC(=O)Nc1c(C)cc(C(=O)NN)cc1C"
  GROUP_LABEL: "Criterion not met"
- COMPOUND: "Clc1cc2nc(-c3ccccc3)c(-c3ccccc3)nc2cc1Cl"
  GROUP_LABEL: "Criterion not met"
- COMPOUND: "CC(C)N(C(=S)SSC(=S)N(C(C)C)C(C)C)C(C)C"
  GROUP_LABEL: "Criterion not met"
- COMPOUND: "CC(=O)c1ccc(N2C(=O)c3ccc(Oc4ccccc4)cc3C2=O)cc1"
  GROUP_LABEL: "Criterion not met"
- COMPOUND: "COc1cc(NC(=O)CSc2nc3ccc(Cl)cc3c(=O)n2-c2ccccc2)cc(OC)c1OC"
  GROUP_LABEL: "Criterion not met"
- COMPOUND: "c1ccc2oc(-c3cnc4nonc4n3)cc2c1"
  GROUP_LABEL: "Criterion not met"
- COMPOUND: "O=C(N/N=C\\c1cc(Br)ccc1O)c1ccncc1"
  GROUP_LABEL: "Criterion met"

Origin of values: PubChem BioAssay (NCI)
